Measured pKi by item
- SYSTEM TESTED: human 5-HT6 receptor (Homo sapiens, UniProt P50406)
- Construct: host or cells: CHO-K1 cells, stably transfected; membranes prepared in house
- Sequence (P50406 whole entry): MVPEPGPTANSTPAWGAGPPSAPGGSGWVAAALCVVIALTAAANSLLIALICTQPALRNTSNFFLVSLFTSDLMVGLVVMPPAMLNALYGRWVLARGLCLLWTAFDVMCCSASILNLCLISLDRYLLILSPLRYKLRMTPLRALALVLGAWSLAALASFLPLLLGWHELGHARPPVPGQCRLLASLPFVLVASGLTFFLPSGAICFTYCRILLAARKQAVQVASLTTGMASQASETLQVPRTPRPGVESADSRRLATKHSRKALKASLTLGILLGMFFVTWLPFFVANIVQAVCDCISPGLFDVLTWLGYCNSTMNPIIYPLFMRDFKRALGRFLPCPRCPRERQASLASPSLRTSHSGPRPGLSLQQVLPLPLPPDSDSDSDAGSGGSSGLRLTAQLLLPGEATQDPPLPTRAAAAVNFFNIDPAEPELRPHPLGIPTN
- ASSAY NOTES: Human 5-HT6 Receptor Binding Assay ([3H]LSD displacement, scintillation beads)
- MEASUREMENT CONTEXT: membranes of CHO-K1 cells with recombinant human 5-HT6, 4 nM [3H]LSD; Table 1, class symbols; read-out: h5-HT6 (Ki)
pKi: −log10 of the molar value.

COMPOUND	pKi
O=S(=O)(c1ccc(Cl)c(C(F)(F)F)c1)c1ccc2c3c(oc2c1)CNCC3	> 6.30
COc1cccc(S(=O)(=O)Nc2ccc3c(c2)C2CCNCC2O3)c1 (centres unmarked)	< 6.00
CC(=O)N1CCC2c3cc(NS(=O)(=O)c4cc(C)ccc4C)ccc3OC2C1 (centres unmarked)	< 6.00
O=S(=O)(c1ccccc1)c1ccc2c3c(oc2c1)C1(CCOCC1)NCC3	> 6.30
Cc1cccc(S(=O)(=O)c2ccc3c(c2)OC2CNCCC32)c1 (centres unmarked)	> 6.30
CC12CCNCC1Oc1cc(S(=O)(=O)c3cccc(C(F)(F)F)c3)ccc12 (centres unmarked)	> 6.30
O=S(=O)(Oc1ccc2c(c1)OC1CNCCC21)c1ccc(F)c(Cl)c1 (centres unmarked)	> 6.30
O=S(=O)(c1cccc(OCC2CCOCC2)c1)c1ccc2c(c1)OC1CNCCC21 (centres unmarked) [Example 570]	> 6.30
O=S(=O)(c1cccc(OC(F)(F)F)c1)c1ccc2c(c1)OC1CNCCC21 (centres unmarked) [Example 166]	> 6.30
O=S(=O)(c1cccc(Br)c1)c1ccc2c3c(oc2c1)CNCC3	> 6.30
Cc1ccc(S(=O)(=O)c2ccc3c(c2)C2CCNCC2O3)cc1 (centres unmarked)	< 6.00
